Test: Inhibition of JNK
pIC50: −log10 of the molar value.
Below is a list of entries, each paired with its recorded pIC50 value.

[
  {
    "Molecule": "CCCCc1c(-c2ccc(O)cc2)[nH]c2nccnc12 [ALOISINE A]",
    "Relation Operator": "=",
    "pIC50": 5.52
  },
  {
    "Molecule": "N#C/C(=C(/N)Sc1ccc(N)cc1)c1ccccc1C(F)(F)F",
    "Relation Operator": "<",
    "pIC50": 5.00
  }
]

----------
As an illustration, consider measured ΔTm for molecules on Ribosomal protein S6 kinase alpha-3 (Homo sapiens).

[
  {
    "Molecule": "O=C(Nc1cccc(Nc2cc(Nc3cccc(C(F)(F)F)c3)ncn2)c1)C1CC1",
    "ΔTm": "5.6 °C"
  },
  {
    "Molecule": "O=C(O)Cc1ccc(O)c([N+](=O)[O-])c1",
    "ΔTm": "-0.1 °C"
  },
  {
    "Molecule": "Cc1ccc(NC(=O)c2cccc(N(C)C)c2)cc1NC(=O)c1ccc(O)cc1",
    "ΔTm": "0.2 °C"
  },
  {
    "Molecule": "Cn1cc(C2=C(c3cn(CCCSC(=N)N)c4ccccc34)C(=O)NC2=O)c2ccccc21",
    "ΔTm": "10 °C"
  },
  {
    "Molecule": "O=c1sn(Cc2ccccc2)c(=S)n1Cc1ccccc1",
    "ΔTm": "0 °C"
  },
  {
    "Molecule": "c1ccc(-c2n[nH]c3c2oc2ccccc23)cc1",
    "ΔTm": "0.8 °C"
  },
  {
    "Molecule": "CN[C@@H]1CC2O[C@@](C)([C@@H]1OC)n1c3ccccc3c3c4c(c5c6ccccc6n2c5c31)C(=O)NC4",
    "ΔTm": "12.3 °C"
  },
  {
    "Molecule": "COc1cc2ncnc(Nc3ccc(NC(=O)c4ccccc4)cc3)c2cc1OC",
    "ΔTm": "5.5 °C"
  },
  {
    "Molecule": "CCCNC(=O)Nc1ccc(Oc2ncnc3cc(OC)c(OC)cc23)cc1Cl",
    "ΔTm": "5.8 °C"
  },
  {
    "Molecule": "Cc1[nH]c(/C=C2\\C(=O)Nc3ccc(S(=O)(=O)N(C)c4cccc(Cl)c4)cc32)c(C)c1C(=O)N1CCN(C)CC1",
    "ΔTm": "7.7 °C"
  },
  {
    "Molecule": "CC(C)c1nn(-c2c(Cl)cccc2Cl)c2nc(Cc3ccc(OCCO)cc3)[nH]c(=O)c12",
    "ΔTm": "-0.9 °C"
  },
  {
    "Molecule": "Nc1ncnc2c1c(I)cn2[C@@H]1O[C@H](CO)[C@@H](O)[C@H]1O",
    "ΔTm": "1.7 °C"
  },
  {
    "Molecule": "CN(C)CCCn1cc(C2=C(c3c[nH]c4ccccc34)C(=O)NC2=O)c2ccccc21",
    "ΔTm": "7.8 °C"
  },
  {
    "Molecule": "Nc1nc(Nc2ccc(S(N)(=O)=O)cc2)nn1C(=S)Nc1c(F)cccc1F",
    "ΔTm": "9.6 °C"
  },
  {
    "Molecule": "CC(C)n1cnc2c(NCc3ccccc3O)nc(NCCCO)nc21",
    "ΔTm": "0.9 °C"
  },
  {
    "Molecule": "N#C/C(=C(/N)Sc1ccc(N)cc1)c1ccccc1C(F)(F)F",
    "ΔTm": "0 °C"
  },
  {
    "Molecule": "COc1ccc(Cl)cc1NC(=O)Nc1cc(C)nc2ccccc12",
    "ΔTm": "2.2 °C"
  },
  {
    "Molecule": "CSc1nc(-c2ccc(F)cc2)c(-c2ccnc(NC(C)c3ccccc3)c2)[nH]1 (racemic)",
    "ΔTm": "0.4 °C"
  },
  {
    "Molecule": "Cc1cc(C=C2C(=O)C=CC2=O)cc(C)c1O",
    "ΔTm": "1.8 °C"
  },
  {
    "Molecule": "N#CC(C#N)=Cc1ccc(O)c(O)c1",
    "ΔTm": "0.2 °C"
  }
]
